src = patent US20240287190A1

Molecular target: T1, recombinant human TGFβ1 protein (R&D Systems, Cat #7754-BH-025/CF) (human, UniProt P01137 279-390)
T1 construct: Bought protein
T1 sequence (P01137 279-390 limits assumed): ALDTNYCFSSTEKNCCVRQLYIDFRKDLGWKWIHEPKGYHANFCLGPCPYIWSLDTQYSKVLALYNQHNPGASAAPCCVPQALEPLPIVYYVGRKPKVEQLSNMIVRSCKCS
Test: bridging ELISA on plate-coated TGFβ1, detected with His-tag human B7-H3; paragraph 158 says the mono antibodies are not bound to TGFβ1
Endpoint Name: binding result

#6 (mono) B7-H3 mono antibody free of TGFβ binding portion (antibody, human IgG1, N297A, V domains shown) VH: EVQLLESGGGLVQPGGSLRLSCAASGFTFSTYAISWVRQAPGKGLEWVSSIYYSGYTHYNPSLESRFTISRDNSKNTLYLQMNSLRAEDTAVYYCARGYSGWMDVWGQGTLVTVSS VL: QSVLTQPPSASGTPGQRVTISCGGNNIGSKSVHWYQQLPGTAPKLLIYDNNKRPSGVPNRFSGSKSGTSASLAISGLRSEDEADYYCAAWDDSLNVPVFGGGTKLTVL | no binding
#9 (mono) B7-H3 mono antibody free of TGFβ binding portion (antibody, human IgG1, N297A, V domains shown) VH: EVQLLESGGGLVQPGGSLRLSCAASGFTFSSYAMNWVRQAPGKGLEWVSTISGSGGQTYYADSVKGRFTISRDNSKNTLYLQMNSLRAEDTAVYYCARWRSIWAFDYWGQGTLVTVSS VL: QSVLTQPPSASGTPGQRVTISCSDNNIGSKSVHWYQQLPGTAPKLLIYDNNKRPSGVPDRFSGSKSGTSASLAISGLRSEDEADYYCGTWDDSLSGPVFGGGTKLTVL | no binding
#8 (mono) B7-H3 mono antibody free of TGFβ binding portion (antibody, human IgG1, N297A, V domains shown) VH: EVQLLESGGGLVQPGSSLRLSCAASGFTFSSYWISWVRQAPGKGLEWVSEISPSGNTNYNPSLKSRFTISRDNSKNTLYLQMNSLRAEDTAVYYCAREVGDLLDYWGQGTLVTVSS VL: QSVLTQPPSASGTPGQRVTISCSGSNIGNNYVSWYQQLPGTAPKLLIYQDSKRPSGVPDRFSGSKSGTSASLAISGLRSEDEADYYCLVWDRSSDHFVFGGGTKLTVL | no binding
